- System tested: Fuc(a1-2)Gal(b1-3)GlcNAc(b1-2)Man(a1-3)[Fuc(a1-2)Gal(b1-3)GlcNAc(b1-2)Man(a1-6)]Man(b1-4)GlcNAc(b1-4)[Fuc(a1-6)]GlcNAc
- Protocol description: glycan array binding signal (z-score within array); higher = stronger binding
- Measurement conditions: glycan notation: IUPAC condensed, linker removed
Shown is part of a subset that was picked to be rich in the strongest signals.
Measurement kind: glycan array binding signal (z-score)
# respond with the number and nothing more

Sample answers from the record:
# Binder, glycan array binding signal (z-score)
rows = [
    ("RS2L (Ralstonia solanacearum), B5RXL5_RALSO (protein) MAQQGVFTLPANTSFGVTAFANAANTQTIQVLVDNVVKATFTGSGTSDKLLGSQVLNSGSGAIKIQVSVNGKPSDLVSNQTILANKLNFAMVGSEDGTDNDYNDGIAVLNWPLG", 0.443),
    ("Flo1 (Saccharomyces cerevisiae), P32768 (protein) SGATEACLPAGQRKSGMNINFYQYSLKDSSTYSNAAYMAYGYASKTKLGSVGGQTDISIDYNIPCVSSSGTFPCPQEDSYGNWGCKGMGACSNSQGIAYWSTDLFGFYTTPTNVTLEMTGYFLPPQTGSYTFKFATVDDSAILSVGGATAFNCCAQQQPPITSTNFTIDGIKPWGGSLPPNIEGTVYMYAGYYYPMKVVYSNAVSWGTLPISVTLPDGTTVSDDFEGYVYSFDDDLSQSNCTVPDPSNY", 1.41),
    ("FimA-N3 (Actinomyces oris) (protein) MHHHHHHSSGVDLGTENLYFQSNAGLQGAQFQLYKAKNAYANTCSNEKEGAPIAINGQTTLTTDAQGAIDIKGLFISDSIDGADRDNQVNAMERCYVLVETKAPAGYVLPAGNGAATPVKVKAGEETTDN", -0.196),
]

Sample CFEM-CGl (Candida glabrata), Q6FRS0 (protein) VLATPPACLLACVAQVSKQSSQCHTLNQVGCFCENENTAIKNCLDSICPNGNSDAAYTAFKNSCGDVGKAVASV ; glycan array binding signal (z-score) observed: -0.163

Sample BC2LB (Burholderia cenocepacia), B4EH85_BURCJ (protein) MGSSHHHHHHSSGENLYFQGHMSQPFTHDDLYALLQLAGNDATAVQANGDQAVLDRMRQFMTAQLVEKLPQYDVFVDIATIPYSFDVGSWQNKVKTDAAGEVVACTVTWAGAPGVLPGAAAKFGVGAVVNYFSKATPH ; glycan array binding signal (z-score) observed: -0.135

Sample Epa8 (Candida glabrata) (protein) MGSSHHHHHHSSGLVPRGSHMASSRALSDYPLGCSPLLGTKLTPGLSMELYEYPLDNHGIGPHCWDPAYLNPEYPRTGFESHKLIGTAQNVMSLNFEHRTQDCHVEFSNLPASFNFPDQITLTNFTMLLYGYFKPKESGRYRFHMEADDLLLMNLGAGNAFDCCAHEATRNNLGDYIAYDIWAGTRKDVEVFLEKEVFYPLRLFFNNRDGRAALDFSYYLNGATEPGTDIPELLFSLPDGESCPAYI ; glycan array binding signal (z-score) observed: 0.141
